Quick reference for pEC50 among some compounds
Test system: NV genome in HG23 cells
Assay: Norovirus replicon assay (HG23 cells, NV genome by qRT-PCR)
Format: cell-based, genogroup 1 norovirus
Conditions: Norovirus; HG23 cells, reduction of NV genome vs mock-medium at 48 h; read-out: EC50
pEC50: −log10 of the molar value.

- Compound: "CCOc1nc(N)nc2c1ncn2[C@@H]1O[C@]2(F)CO[P@](=O)(OC(C)C)O[C@H]2[C@@]1(C)O [Compound 144a]"
  Experimental System: "NV genome in HG23 cells"
  pEC50: "5.00 to 6.00"
- Compound: "C#C[C@@]1(O)[C@H](O)[C@@H](CO)O[C@H]1n1ccc2c(N)ncnc21 [Compound 291a]"
  Experimental System: "NV genome in HG23 cells"
  pEC50: "> 6.00"
- Compound: "[N-]=[N+]=N[C@]1(CO)O[C@@H](n2ccc(N)nc2=O)[C@H](O)[C@@H]1O [Compound 381a]"
  Experimental System: "NV genome in HG23 cells"
  pEC50: "4.00 to 5.00"
- Compound: "[N-]=[N+]=N[C@]1(CO)O[C@@H](n2ccc(N)nc2=O)[C@@H](O)[C@@H]1O [Compound 266a]"
  Experimental System: "NV genome in HG23 cells"
  pEC50: "5.00 to 6.00"
- Compound: "Nc1ccn([C@@H]2O[C@@](CO)(CCl)[C@@H](O)[C@H]2O)c(=O)n1 [Compound 271a]"
  Experimental System: "NV genome in HG23 cells"
  pEC50: "4.00 to 5.00"
- Compound: "C#C[C@@]1(O)[C@H](O)[C@](CO)(CCl)O[C@H]1n1ccc(=O)[nH]c1=O [Compound 344a]"
  Experimental System: "NV genome in HG23 cells"
  pEC50: "4.00 to 5.00"
- Compound: "Nc1ccn([C@@H]2O[C@@](CO)(CF)[C@@H](O)C2(F)F)c(=O)n1 [Compound 179a]"
  Experimental System: "NV genome in HG23 cells"
  pEC50: "5.00 to 6.00"
- Compound: "[N-]=[N+]=NC[C@]1(CO)O[C@@H](n2ccc(N)nc2=O)[C@H](F)[C@@H]1O [Compound 113a]"
  Experimental System: "NV genome in HG23 cells"
  pEC50: "5.00 to 6.00"
- Compound: "C#C[C@]1(O)[C@H](n2ccc(=O)[nH]c2=O)O[C@](F)(COP(=O)(OCOC(=O)OC(C)C)OCOC(=O)OC(C)C)[C@H]1O [Compound 208a]"
  Experimental System: "NV genome in HG23 cells"
  pEC50: "> 6.00"
- Compound: "CCOc1nc(N)nc2c1ncn2[C@@H]1O[C@](F)(COP(=O)(OCOC(=O)OC(C)C)OCOC(=O)OC(C)C)[C@@H](O)[C@@]1(C)O [Compound 209a]"
  Experimental System: "NV genome in HG23 cells"
  pEC50: "> 6.00"
- Compound: "Nc1ccn([C@@H]2O[C@@](CO)(CF)[C@@H](O)[C@H]2F)c(=O)n1 [Compound 23a]"
  Experimental System: "NV genome in HG23 cells"
  pEC50: "4.00 to 5.00"
- Compound: "[N-]=[N+]=N[C@]1(CO)O[C@@H](n2ccc(N)nc2=O)C(F)(F)[C@@H]1O [Compound 380a]"
  Experimental System: "NV genome in HG23 cells"
  pEC50: "5.00 to 6.00"
- Compound: "CC(C)OC(=O)OCOP(=O)(OCOC(=O)OC(C)C)OC[C@@]1(CF)O[C@@H](n2ccc(=O)[nH]c2=O)[C@](C)(O)[C@@H]1O [Compound 156a]"
  Experimental System: "NV genome in HG23 cells"
  pEC50: "> 6.00"
- Compound: "CCOc1nc(N)nc2c1ncn2[C@@H]1O[C@](F)(COP(=O)(OCOC(=O)OC(C)C)OCOC(=O)OC(C)C)[C@@H](O)[C@@]1(C)F [Compound 188a]"
  Experimental System: "NV genome in HG23 cells"
  pEC50: "> 6.00"
- Compound: "C[C@@]1(O)[C@H](O)[C@](CO)(CF)O[C@H]1n1ccc(N)nc1=O [Compound 338a]"
  Experimental System: "NV genome in HG23 cells"
  pEC50: "4.00 to 5.00"
- Compound: "C#C[C@@]1(O)[C@H](O)[C@@](CF)(COP(=O)(OCOC(=O)OC(C)C)OCOC(=O)OC(C)C)O[C@H]1n1cnc2c(N)ncnc21 [Compound 168a]"
  Experimental System: "NV genome in HG23 cells"
  pEC50: "> 6.00"
